Serine/threonine-protein kinase pim-2 (Homo sapiens) measurements of ΔTm, listed per entry.
Sequence (Q9P1W9 whole entry, looked up): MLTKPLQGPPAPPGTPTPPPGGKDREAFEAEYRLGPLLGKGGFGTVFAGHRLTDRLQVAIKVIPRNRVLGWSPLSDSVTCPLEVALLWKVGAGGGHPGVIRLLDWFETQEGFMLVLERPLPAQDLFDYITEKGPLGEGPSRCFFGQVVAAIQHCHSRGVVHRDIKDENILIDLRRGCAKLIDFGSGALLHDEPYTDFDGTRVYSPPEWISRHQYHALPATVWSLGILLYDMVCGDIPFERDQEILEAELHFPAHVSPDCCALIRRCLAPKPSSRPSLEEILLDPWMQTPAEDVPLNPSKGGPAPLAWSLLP
observation_type: ΔTm (°C)

| compound | tested_target | unit_info | number |
| --- | --- | --- | --- |
| Cc1c2ccncc2c(C)c2c1[nH]c1ccccc12 [ELLIPTECINE] | Serine/threonine-protein kinase pim-2 (Homo sapiens) | °C | 7.1 |
| O=C1Nc2ccc(I)cc2/C1=C1/Nc2ccccc2/C1=N\O | Serine/threonine-protein kinase pim-2 (Homo sapiens) | °C | -0.5 |
| Cc1cncc2cccc(S(=O)(=O)N3CCCNC[C@@H]3C)c12 | Serine/threonine-protein kinase pim-2 (Homo sapiens) | °C | 0.7 |
| CC(C)N(CCO)c1nc(Nc2cccc(Cl)c2)c2ncn(C(C)C)c2n1 | Serine/threonine-protein kinase pim-2 (Homo sapiens) | °C | 0.2 |
| Nc1n[nH]c2nc3ccccc3nc12 [QUINOXALINE1] | Serine/threonine-protein kinase pim-2 (Homo sapiens) | °C | 1.3 |
| O=c1cc(-c2ccc(O)cc2)oc2cc(O)cc(O)c12 | Serine/threonine-protein kinase pim-2 (Homo sapiens) | °C | 3.8 |

---

Casein kinase I isoform gamma-1 (Homo sapiens) (UniProt Q9HCP0): recorded ΔTm for assorted compounds
Sequence (Q9HCP0 whole entry, looked up, canonical isoform): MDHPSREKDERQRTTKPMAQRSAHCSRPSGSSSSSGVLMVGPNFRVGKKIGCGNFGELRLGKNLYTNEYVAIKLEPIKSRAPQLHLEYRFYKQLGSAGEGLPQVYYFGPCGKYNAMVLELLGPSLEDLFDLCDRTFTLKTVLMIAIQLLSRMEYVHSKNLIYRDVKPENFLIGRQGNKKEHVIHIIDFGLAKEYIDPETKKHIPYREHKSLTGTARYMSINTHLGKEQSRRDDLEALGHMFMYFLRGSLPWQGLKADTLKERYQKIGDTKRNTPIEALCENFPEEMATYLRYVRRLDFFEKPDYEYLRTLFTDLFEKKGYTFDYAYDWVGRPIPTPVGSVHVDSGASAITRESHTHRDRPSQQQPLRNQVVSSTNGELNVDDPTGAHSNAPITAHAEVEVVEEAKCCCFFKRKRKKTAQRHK

| given_smiles | ΔTm [°C] |
| --- | --- |
| CCOC(=O)c1c(C)[nH]c(/C=C2\C(=O)Nc3ccccc32)c1C | -11.4 |
| Nc1nccc(-c2c(-c3ccc(F)cc3)ncn2C2CCNCC2)n1 | 3 |
| O=C(O)c1cc(N(Cc2ccccc2O)Cc2cc(O)ccc2O)ccc1O | 1.4 |
| CC(C)(C)n1nc(-c2cccc3ccccc23)c2c(N)ncnc21 | 0.1 |
| Ic1cccc(CSc2nnc(-c3ccncc3)o2)c1 | 0.6 |
| Cc1ccc(NC2=CC(=O)c3sc(C)nc3C2=O)cc1 | -0.6 |

---

System: Casein kinase I isoform gamma-1 (Homo sapiens) | Read-out: ΔTm
observation_type: ΔTm (°C)

| molecule | observation_type | number |
| --- | --- | --- |
| Nc1cccc(-c2cc3c(Oc4cccc(O)c4)ncnc3[nH]2)c1 | ΔTm | 1.5 |
| N=C(N)NCCNS(=O)(=O)c1cccc2cnccc12 | ΔTm | -0.3 |
| CN(C)c1ncnc2nc[nH]c12 | ΔTm | -0.1 |
| O=C1Nc2ccccc2/C1=C/c1cnc[nH]1 | ΔTm | 1.2 |
| COc1ccc(CNC(=O)Nc2ncc([N+](=O)[O-])s2)cc1 | ΔTm | 0.7 |
| O=C(O)Cc1ccc(O)c([N+](=O)[O-])c1 | ΔTm | 0.3 |
| COc1ccc(S(=O)(=O)N(CCO)c2ccccc2CN(C)C/C=C/c2ccc(Cl)cc2)cc1 | ΔTm | 0.1 |
| CN1CCc2[nH]c(=S)c(C#N)c(-c3cccs3)c2C1 | ΔTm | 0.8 |
| N#C/C(=C\c1ccc(O)c(O)c1)C(=O)NCc1ccccc1 | ΔTm | 0.4 |
| O=c1ccc2ccc(O)c(O)c2o1 | ΔTm | 0 |
| COc1ccc(COc2ccc(Cc3cnc(N)nc3N)cc2OC)cc1 | ΔTm | 0.7 |
| O=C1NC(=O)C(c2c[nH]c3ccccc23)=C1c1c[nH]c2ccccc12 | ΔTm | 0.6 |
| COc1ccc2c(c1)/C(=C/c1cnc[nH]1)C(=O)N2 | ΔTm | 1 |
| c1ccc(-c2n[nH]c3c2oc2ccccc23)cc1 | ΔTm | 0.8 |
| N#CC(C#N)=Cc1ccc(O)c(O)c1 | ΔTm | 0.4 |
| CN(C)c1ccc(CC2C(=O)Nc3ccccc32)cc1 (stereo not drawn) | ΔTm | 1.2 |
| NC(=O)c1ccc2[nH]c(-c3ccc(Oc4ccc(Cl)cc4)cc3)nc2c1 | ΔTm | 1.7 |
| COc1cc2ncnc(Nc3cccc(O)c3)c2cc1OC | ΔTm | 1.3 |
| Cc1nc(N)sc1-c1ccnc(Nc2cccc([N+](=O)[O-])c2)n1 | ΔTm | 3.9 |
| Cc1ccc(NC(=O)c2cccc(N(C)C)c2)cc1NC(=O)c1ccc(O)cc1 | ΔTm | -0.1 |
| OC[C@H]1O[C@@H](n2cnc3cc(Cl)c(Cl)cc32)[C@H](O)[C@@H]1O | ΔTm | 0.7 |
| CC(C)(C)c1nc2c3ccc(F)cc3c3c(=O)[nH]ccc3c2[nH]1 | ΔTm | 0.5 |
| O=C1C(Cl)=C(N2C(=O)CCC2=O)C(=O)c2ccccc21 | ΔTm | 0.7 |
